Origin of values: PubChem BioAssay (NCI)

Test system: MALME-3M melanoma
Test: NCI tumour cell line growth inhibition, 48 h
measurement.label: TGI

- compound: "O=C1Oc2ccccc2C(=O)/C1=C/N1C(=O)/C(=C/c2ccc([N+](=O)[O-])cc2)SC1=S"
  measurement.label: "TGI"
  result: "> 100 µM"
- compound: "Cc1ccc(S(=O)(=O)N2CCC3(C(/C=C/c4ccccc4)=Nc4ccccc43)C2c2ccccc2)cc1 (configuration not stated)"
  measurement.label: "TGI"
  result: "> 100 µM"
- compound: "Cn1c(C(C#N)c2cc(Cl)ncn2)nc2ccccc21 (configuration not stated)"
  measurement.label: "TGI"
  result: "> 100 µM"
- compound: "O=c1ccc2ccccc2o1"
  measurement.label: "TGI"
  result: "> 100 µM"
- compound: "O=[N+]([O-])c1ccc(NC2OCC(O)C(O)C2O)cc1 (configuration not stated)"
  measurement.label: "TGI"
  result: "> 100 µM"
- compound: "COC1(OC)N=C(N)C2(C#N)C(C)CC(=O)N(N(C)C)C12C#N (configuration not stated)"
  measurement.label: "TGI"
  result: "> 100 µM"
- compound: "O=C(Nc1cnn2ccc(N3CCC[C@@H]3c3cc(F)ccc3F)nc12)N1CC[C@H](O)C1"
  measurement.label: "TGI"
  result: "> 100 µM"

---

Overview of reported GI50 across a group of compounds:
Test system: RPMI-8226 leukemia
Assay: NCI tumour cell line growth inhibition, 48 h
measurement.label: GI50

- compound: "O=S(=O)(NC(=S)Nc1ccccc1)c1ccc(N2N=C3c4ccccc4CC3C2c2cccs2)cc1 (stereo not given)"
  measurement.label: "GI50"
  result: "30300 nM"
- compound: "O=c1cccc(C#Cc2ccccc2)o1"
  measurement.label: "GI50"
  result: "698 nM"
- compound: "C=C1C(=O)O[C@H]2[C@H]1CC/C(COC(=O)C(=O)c1c[nH]c3ccc(OC)cc13)=C\\CC[C@@]1(C)O[C@@H]21"
  measurement.label: "GI50"
  result: "2210 nM"
- compound: "CC[C@@]1(O)C(=O)OCc2c1cc1n(c2=O)Cc2cc3cc(OC)ccc3nc2-1"
  measurement.label: "GI50"
  result: "41.1 nM"
- compound: "CCC(C(=O)[O-])C(=O)[O-].CCC(C(=O)[O-])C(=O)[O-].N.N.NCCCCCN.[Pt+4].[Pt+4]"
  measurement.label: "GI50"
  result: "> 100000 nM"
- compound: "[Cl-].[Rh+3].c1ccc(-c2ccnc3c2ccc2c(-c4ccccc4)ccnc23)cc1.c1ccc(-c2ccnc3c2ccc2c(-c4ccccc4)ccnc23)cc1.c1ccc(-c2ccnc3c2ccc2c(-c4ccccc4)ccnc23)cc1"
  measurement.label: "GI50"
  result: "29200 nM"
- compound: "COc1ccc(-c2cnc(-c3ccc(F)cc3)[nH]2)cc1"
  measurement.label: "GI50"
  result: "2390 nM"
- compound: "CS(=O)(=O)N1CCN(Cc2cc3nc(-c4cccc5[nH]ncc45)nc(N4CCOCC4)c3s2)CC1 (tested in a mixture with another compound)"
  measurement.label: "GI50"
  result: "3480 nM"
- compound: "O=C1c2cccnc2-c2nc(/C=C/c3ccccc3)cc3c2c1nc1ccccc13"
  measurement.label: "GI50"
  result: "1200 nM"
- compound: "COc1ccc(C2NCCc3c2[nH]c2ccccc32)cc1CN1CCN(c2ccc(F)cc2)CC1 (stereo not given)"
  measurement.label: "GI50"
  result: "2470 nM"
- compound: "COc1cc2c3c(n(CCCN)c(=O)c2cc1OC)-c1ccc(F)cc1C3=O"
  measurement.label: "GI50"
  result: "605 nM"
- compound: "COC(=O)[C@]12CC[C@@H](C)[C@H](C)[C@@H]1C1=CC[C@@H]3[C@@]4(C)C(C=O)=C[C@@](C)(COC(C)=O)[C@@H]4[C@H](O)C[C@@]3(C)[C@]1(C)CC2"
  measurement.label: "GI50"
  result: "1400 nM"
- compound: "Nc1ccc(C#Cc2cncnc2Nc2ccc(OCc3cccc(F)c3)c(Cl)c2)cc1"
  measurement.label: "GI50"
  result: "15300 nM"
- compound: "CC[N+](CC)=c1ccc2nc3c(cc(NCc4ccccc4)c4ccccc43)oc-2c1"
  measurement.label: "GI50"
  result: "94.9 nM"
- compound: "N#C/C(=C\\c1ccc(Br)cc1)n1nnc2cccc(F)c21"
  measurement.label: "GI50"
  result: "416 nM"
- compound: "CCCCCCCCOc1ccc(/C=N/Nc2cc(C)nc3ccc(Cl)cc23)cc1"
  measurement.label: "GI50"
  result: "2010 nM"
- compound: "COc1cc2c3c(n(CCCN4CCN(C)CC4)c(=O)c2cc1OC)-c1cc2c(cc1C3=O)OCO2"
  measurement.label: "GI50"
  result: "2390 nM"
- compound: "N#C/C(=C/C=C(\\Cl)c1ccc(Cl)cc1)C(N)=O"
  measurement.label: "GI50"
  result: "2140 nM"
- compound: "Cc1ccc(S(=O)(=O)Oc2ccc3c4c(c(=O)oc3c2)CCCCC4)cc1"
  measurement.label: "GI50"
  result: "4550 nM"
- compound: "CC(C)(C)OC(=O)NCCCCCCCCn1c2c(c3ccccc3c1=O)C(=O)c1ccccc1-2"
  measurement.label: "GI50"
  result: "> 50000 nM"

---

Overview of reported TGI across a group of compounds:
Test system: NCI-H460 lung
Assay: NCI tumour cell line growth inhibition, 48 h

- compound: "O=[N+]([O-])c1ccc(Cl)cc1C1ON=C(c2ccccc2)N1C12CC3CC(CC(C3)C1)C2 (configuration not stated)"
  experimental.system: "NCI-H460 lung"
  TGI: "> 100 µM"
- compound: "Cc1ccc(N=C2CSc3nnc(-c4csc5c4CCCC5)n3N2)cc1"
  experimental.system: "NCI-H460 lung"
  TGI: "> 50 µM"
- compound: "CC1C=C(OC(=O)c2ccccc2)C(=O)C(n2cc(F)c(=O)n(C(=O)c3ccccc3)c2=O)O1 (configuration not stated)"
  experimental.system: "NCI-H460 lung"
  TGI: "> 100 µM"
- compound: "Oc1ccc(-c2nc3cc(C(F)(F)F)ccc3n2CC2CCCN3CCCCC23)cc1 (configuration not stated)"
  experimental.system: "NCI-H460 lung"
  TGI: "28.3 µM"
- compound: "COc1ccc(/C=C(/C(=O)N2CCCC2)c2cc(OC)c(OC)c(OC)c2)cc1N"
  experimental.system: "NCI-H460 lung"
  TGI: "> 100 µM"
- compound: "Oc1cc(Cl)cc2cc(Br)cnc12"
  experimental.system: "NCI-H460 lung"
  TGI: "> 57.7 µM"
- compound: "CC1=C(C2=C(C)C(=O)C(=O)c3cc(C)ccc32)c2ccc(C)cc2C(=O)C1=O"
  experimental.system: "NCI-H460 lung"
  TGI: "0.531 µM"
- compound: "O=C1Oc2ccccc2C(=O)/C1=C/N1C(=O)/C(=C/c2ccc([N+](=O)[O-])cc2)SC1=S"
  experimental.system: "NCI-H460 lung"
  TGI: "57.8 µM"
- compound: "COC(=O)C1=NN2c3ccccc3C(=O)OCCC2C1 (configuration not stated)"
  experimental.system: "NCI-H460 lung"
  TGI: "> 100 µM"
- compound: "CC(C)(C)OC(=O)NCCCCCCCCn1c2c(c3ccccc3c1=O)C(=O)c1ccccc1-2"
  experimental.system: "NCI-H460 lung"
  TGI: "> 50 µM"
- compound: "C=CCNC1=C(C(=O)OCC)C(=O)CO1"
  experimental.system: "NCI-H460 lung"
  TGI: "> 100 µM"
- compound: "Cc1ccc(S(=O)(=O)N2CCSCCSCCN(S(=O)(=O)c3ccc(C)cc3)CCN(S(=O)(=O)c3ccc(C)cc3)CC2)cc1"
  experimental.system: "NCI-H460 lung"
  TGI: "> 100 µM"
- compound: "Cc1cc2c(c3oc(C(O)(CO)C4CO4)cc(=O)c13)C(=O)c1c(O)cccc1C2=O (configuration not stated)"
  experimental.system: "NCI-H460 lung"
  TGI: "0.00012 µM"
- compound: "NC1=NC(c2ccccc2)N=C(Nc2ccccc2)N1 (configuration not stated)"
  experimental.system: "NCI-H460 lung"
  TGI: "> 100 µM"
- compound: "CC(=O)NNc1nc(C)c(C(/C=C/c2ccc(Cl)cc2)=N\\NS(=O)(=O)c2ccc(C)cc2)s1"
  experimental.system: "NCI-H460 lung"
  TGI: "> 100 µM"
- compound: "N#C/C(=C/c1cccnc1)C(=O)c1ccccc1"
  experimental.system: "NCI-H460 lung"
  TGI: "> 100 µM"
- compound: "COc1ccc(C2NCCc3c2[nH]c2ccccc32)cc1CN1CCN(c2ccc(F)cc2)CC1 (configuration not stated)"
  experimental.system: "NCI-H460 lung"
  TGI: "3.49 µM"
- compound: "C/C(Cl)=N\\OC(=O)Nc1ccccc1C(F)(F)F"
  experimental.system: "NCI-H460 lung"
  TGI: "> 100 µM"
- compound: "COC(=O)[C@H]1[C@H](C(=O)OC)[C@@H](C)c2c(ccc3c2[nH]c2ccccc23)[C@@H]1C"
  experimental.system: "NCI-H460 lung"
  TGI: "> 100 µM"
- compound: "COc1cccc(NCC(=O)Nn2c(-c3ccccc3)nc3ccccc3c2=O)c1"
  experimental.system: "NCI-H460 lung"
  TGI: "> 100 µM"
- compound: "N#C/C(=C/C=C(\\Cl)c1ccc(Cl)cc1)C(N)=O"
  experimental.system: "NCI-H460 lung"
  TGI: "> 100 µM"
- compound: "Cc1ccc(NC(=O)CC(=O)n2nc(-c3ccccc3)c(N=Nc3ccc(Cl)cc3)c2-c2ccccc2)cc1"
  experimental.system: "NCI-H460 lung"
  TGI: "> 100 µM"
